What follows is literature data on log10 of IC50 for Serine/threonine-protein kinase pim-1 (Homo sapiens, UniProt P11309).
The base-10 logarithm of IC50, taken with IC50 in nM, is what appears here.

{"columns": ["COMPOUND", "log10 of IC50"],
 "data": [
  ["CCCn1c(N2CCNCC2)nc2c(Br)c(Br)c(Br)c(Br)c21", 0.97],
  ["C[C@@H]1C[C@H](N)C[C@H](c2ccncc2NC(=O)c2ccc(F)c(-c3c(F)cc4c(c3F)OCC[C@]4(C)O)n2)C1", -2.00]
]}

-- ask Notebook: pull reported log10 of IC50 for Serine/threonine-protein kinase pim-1 (Homo sapiens, UniProt P11309), entry Nc1ccc(-c2cc(C(=O)NC3CCCCC3)ccc2F)nc1-c1cc2c(N3CCC[C@H](N)C3)ccnc2cn1
-- reply 0.95

-- ask What value of log10 of IC50 on Serine/threonine-protein kinase pim-1 (Homo sapiens, UniProt P11309) does NCCCNc1nc2c(Br)c(Br)c(Br)c(Br)c2[nH]1 have?
-- reply 0.77

-- ask Hello, I am looking for reported log10 of IC50 with Serine/threonine-protein kinase pim-1 (Homo sapiens, UniProt P11309) for C[C@@H]1C[C@H](N)C[C@H](c2ccncc2NC(=O)c2ccc(F)c(-c3c(F)cc([C@H](O)CO)cc3F)n2)C1 . Could you help?
-- reply -1.40

-- ask Short answer please: log10 of IC50, Serine/threonine-protein kinase pim-1 (Homo sapiens, UniProt P11309), entry CCOc1cc(F)c(-c2nc(C(=O)Nc3cnccc3[C@H]3C[C@@H](N)[C@H](O)[C@@H](C)C3)ccc2F)c(F)c1
-- reply -1.40

-- ask Lab note: need log10 of IC50 with Serine/threonine-protein kinase pim-1 (Homo sapiens, UniProt P11309) for entry C[C@@H]1C[C@H](N)CN(c2ccnc3ccc(-c4cccc(-c5c(F)cccc5F)n4)cc23)C1 , please look it up.
-- reply 0.30

-- ask Write down the reported log10 of IC50 of CCC(C)(C)C(=O)OCCOc1cc2nc(-c3nnc4ccc([C@@H](N5CC[C@H](N)C5)C(F)(F)F)cn34)ccc2cc1F , test system: Serine/threonine-protein kinase pim-1 (Homo sapiens, UniProt P11309).
-- reply -0.42

-- ask Lab note: need log10 of IC50 with Serine/threonine-protein kinase pim-1 (Homo sapiens, UniProt P11309) for entry Cc1noc(C)c1-c1cc(F)c(-c2nc(C(=O)Nc3cnccc3[C@H]3C[C@@H](N)[C@H](O)[C@@H](C)C3)ccc2F)c(F)c1 , please look it up.
-- reply -0.59

-- ask Record COCCOc1ccc2cc(F)c(-c3nnc4ccc(C(N5CC[C@](C)(N)C5)C(F)(F)F)cn34)nc2c1 (stereo in doubt) : what is its log10 of IC50 with Serine/threonine-protein kinase pim-1 (Homo sapiens, UniProt P11309)?
-- reply -0.38

-- ask Kindly state the measured log10 of IC50 obtained for COCCOc1cc(F)c(-c2nc(C(=O)Nc3cnccc3[C@H]3C[C@@H](N)[C@H](O)[C@@H](C)C3)ccc2F)c(F)c1 with Serine/threonine-protein kinase pim-1 (Homo sapiens, UniProt P11309).
-- reply -1.15

-- ask Find log10 of IC50 (Serine/threonine-protein kinase pim-1 (Homo sapiens, UniProt P11309)) for the entry CCn1c(N2CCN(CCCN3CCOCC3)CC2)nc2c(Br)c(Br)c(Br)c(Br)c21
-- reply 2.10

-- ask Requested read-out log10 of IC50, target or system Serine/threonine-protein kinase pim-1 (Homo sapiens, UniProt P11309), entry Brc1c(Br)c(Br)c2[nH]c(NCCCn3ccnc3)nc2c1Br
-- reply 1.36

-- ask // fetch Serine/threonine-protein kinase pim-1 (Homo sapiens, UniProt P11309) log10 of IC50 for Brc1c(Br)c(Br)c2[nH]c(N3CCCNCC3)nc2c1Br
-- reply 1.48

-- ask Please provide the recorded log10 of IC50 for Oc1cc2nc(-c3ccc(O)c(O)c3O)sc2cc1O , tested on Serine/threonine-protein kinase pim-1 (Homo sapiens, UniProt P11309).
-- reply 2.16

-- ask API: value(readout= log10 of IC50, system= Serine/threonine-protein kinase pim-1 (Homo sapiens, UniProt P11309), query= COCCOc1cc(F)c(-c2nc(C(=O)Nc3cnccc3[C@@H]3C[C@H](C)C[C@H](N)C3)c(N)cc2F)c(F)c1 )
-- reply -2.00

-- ask Can you look up log10 of IC50 on Serine/threonine-protein kinase pim-1 (Homo sapiens, UniProt P11309) for CC(C)NC(=O)c1ccc(F)c(-c2nc(C(=O)Nc3cnccc3N3CCC[C@H](N)C3)cs2)c1 ?
-- reply 0.51

-- ask Form field: log10 of IC50 recorded for CN(C)CCN(Cc1ccccc1)c1nc2c(Br)c(Br)c(Br)c(Br)c2n1Cc1ccccc1 with Serine/threonine-protein kinase pim-1 (Homo sapiens, UniProt P11309) (enter value)
-- reply 1.88
